molecular target: human recombinant BACE1 (Homo sapiens (Human), UniProt P56817); test: In vitro enzymatic BACE1 FRET assay; conditions: read-out: BACE1 Enzyme IC50
Sequence (P56817 46-501): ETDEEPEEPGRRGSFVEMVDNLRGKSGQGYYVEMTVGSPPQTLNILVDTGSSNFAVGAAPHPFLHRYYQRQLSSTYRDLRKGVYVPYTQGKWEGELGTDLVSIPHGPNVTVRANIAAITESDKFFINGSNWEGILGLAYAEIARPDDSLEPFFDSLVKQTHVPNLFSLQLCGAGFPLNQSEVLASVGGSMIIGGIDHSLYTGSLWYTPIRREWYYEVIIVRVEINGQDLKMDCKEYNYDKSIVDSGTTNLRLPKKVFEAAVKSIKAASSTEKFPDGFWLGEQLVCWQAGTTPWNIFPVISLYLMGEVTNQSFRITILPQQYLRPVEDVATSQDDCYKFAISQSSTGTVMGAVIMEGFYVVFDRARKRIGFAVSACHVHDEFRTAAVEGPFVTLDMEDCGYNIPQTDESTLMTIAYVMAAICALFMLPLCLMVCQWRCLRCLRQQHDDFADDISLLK
Strictly below 20 nM in IC50: MET. Otherwise: NOT MET.

>  <MOLECULE>
COc1cnc(/C(F)=C/c2ccc(F)c([C@]34CO[C@H](C(F)(F)F)[C@H]3CSC(N)=N4)c2)cn1 [Example 136]

>  <QUALITATIVE_LABEL>
NOT MET

$$$$
>  <MOLECULE>
C#CCOc1cnc(/C(F)=C/c2ccc(F)c([C@]34CN(C(=O)CC)C[C@H]3CSC(N)=N4)c2)cn1 [Example 122]

>  <QUALITATIVE_LABEL>
MET

$$$$
>  <MOLECULE>
NC1=N[C@@]2(c3cc(/C=C(\F)c4ccc(Cl)cn4)ccc3F)COC[C@H]2CS1 [Example 105]

>  <QUALITATIVE_LABEL>
NOT MET

$$$$
>  <MOLECULE>
N#Cc1ccc(/C(F)=C/c2ccc(F)c([C@]34CO[C@H](C(F)F)[C@H]3CSC(N)=N4)c2)nc1 [Example 144]

>  <QUALITATIVE_LABEL>
NOT MET

$$$$
>  <MOLECULE>
NC1=N[C@@]2(c3cc(/C=C(\F)c4ccc(F)cn4)ccc3F)CO[C@H](C(F)(F)F)[C@H]2CS1 [Example 132]

>  <QUALITATIVE_LABEL>
NOT MET

$$$$

Consider C#CCOc1cnc(/C(F)=C/c2ccc(F)c([C@]34CN(C(=O)OC(C)(C)C)C[C@H]3CSC(N)=N4)c2)cn1 [Example 116] . Does its IC50 lie strictly below 20 nM? MET

N#Cc1cnc(/C(F)=C/c2ccc(F)c([C@]34CO[C@H](C(F)(F)F)[C@H]3CSC(N)=N4)c2)c(Cl)c1 [Example 140] , same question. MET

----------
system: BACE1 (Aβ40 from cells stably expressing Amyloid Precursor Protein); test: In vitro BACE1 cell-based assay (Aβ40 in conditioned medium, HTRF); details: Aβ40, 24 h incubation; read-out: BACE1 Cell IC50
REPORTED_ENDPOINT: pIC50
Numbers only, as −log10 of the molar value.

// below: answered molecules
>  <MOLECULE>
N#Cc1ccc(/C(F)=C/c2ccc(F)c([C@@]34CO[C@@H](C(F)(F)F)[C@@H]3CSC(N)=N4)c2)nc1

>  <MEASUREMENT_TARGET>
BACE1 (Aβ40 from cells stably expressing Amyloid Precursor Protein)

>  <DATA_VALUE>
5.86

$$$$
>  <MOLECULE>
COC[C@H](C)Oc1cnc(/C(F)=C/c2ccc(F)c([C@]34CN(c5ncc(F)cn5)C[C@H]3CSC(N)=N4)c2)cn1

>  <MEASUREMENT_TARGET>
BACE1 (Aβ40 from cells stably expressing Amyloid Precursor Protein)

>  <DATA_VALUE>
8.59

$$$$

Report pIC50 for each item below.
1. CC#CCOc1cnc(/C(F)=C/c2ccc(F)c([C@]34CN(c5ncc(F)cn5)C[C@H]3CSC(N)=N4)c2)cn1
2. N#Cc1cnc(/C(F)=C/c2ccc(F)c([C@]34CN(c5ncc(F)cn5)C[C@H]3CSC(N)=N4)c2)cn1
3. C#CCOc1cnc(/C(F)=C/c2ccc(F)c([C@]34CN(c5ncc(F)cn5)C[C@H]3CSC(N)=N4)c2)cn1 (stereo in doubt)
4. N#Cc1ccc(/C(F)=C/c2ccc(F)c([C@]34CO[C@H](C(F)F)[C@H]3CSC(N)=N4)c2)nc1
5. C#CCOc1cnc(/C(F)=C/c2ccc(F)c([C@]34CN(C(C)=O)C[C@H]3CSC(N)=N4)c2)cn1

1. 9.42
2. 9.09
3. 9.51
4. 7.74
5. 7.70

Report pIC50 for each item below.
1. Cc1noc(COc2cnc(/C(F)=C/c3ccc(F)c([C@]45CN(c6ncc(F)cn6)C[C@H]4CSC(N)=N5)c3)cn2)n1 (stereo in doubt)
2. COc1nc(N2C[C@H]3CSC(N)=N[C@@]3(c3cc(/C=C(\F)c4ccc(C#N)cn4)ccc3F)C2)nc(C)c1F
3. NC1=N[C@@]2(c3cc(/C=C(\F)c4ccc(C(F)(F)F)cn4)ccc3F)CO[C@H](C(F)(F)F)[C@H]2CS1

[8.39, 9.04, 6.93]

----------
Hi there, I'd appreciate the recorded IC50 for every entry that follows.
Target: Recombinant CatD (Homo sapiens (Human), UniProt P07339)
Sequence (P07339 65-412): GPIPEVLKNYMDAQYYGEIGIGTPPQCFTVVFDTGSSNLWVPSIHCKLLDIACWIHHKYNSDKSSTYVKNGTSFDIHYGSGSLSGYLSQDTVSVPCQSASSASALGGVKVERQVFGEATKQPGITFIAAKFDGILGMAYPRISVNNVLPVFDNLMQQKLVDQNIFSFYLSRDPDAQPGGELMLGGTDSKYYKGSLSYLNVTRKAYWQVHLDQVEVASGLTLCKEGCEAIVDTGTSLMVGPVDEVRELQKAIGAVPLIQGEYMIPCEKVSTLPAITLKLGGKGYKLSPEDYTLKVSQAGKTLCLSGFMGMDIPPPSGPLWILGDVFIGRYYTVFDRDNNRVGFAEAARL
Assay: In vitro enzymatic Cathepsin D (CatD) FRET assay
Conditions: read-out: Cat D Enzyme IC50
Protocol: In Vitro Enzymatic Cathepsin D (CatD) FRET Assay Recombinant CatD was expressed in CHO cells. The assay buffer for CatD was 0.05 M citrate pH 3.5, 10% DMSO final, 5 mM CHAPS. […] The FRET assay was terminated with by addition of tris buffer, which raises the pH to neutrality, and the fluorescence was determined. […] Proteolytic cleavage of the FRET substrate released quenching of fluorescence (CatD excitation 500 nm and emission 580 nm). […]

// below: answered compounds
>  <COMPOUND>
N#Cc1ccc(/C(F)=C/c2ccc(F)c([C@]34CO[C@H](C(F)(F)F)[C@H]3COC(N)=N4)c2)nc1 (single isomer, unassigned)

>  <MEASUREMENT_TARGET>
Recombinant CatD (Homo sapiens (Human), UniProt P07339)

>  <IC50>
> 400 µM

$$$$
>  <COMPOUND>
N#Cc1ccc(/C(F)=C/c2ccc(F)c([C@@]34CO[C@@H](C(F)F)[C@@H]3CSC(N)=N4)c2)nc1

>  <MEASUREMENT_TARGET>
Recombinant CatD (Homo sapiens (Human), UniProt P07339)

>  <IC50>
> 400 µM

$$$$

Short answer please: IC50, Recombinant CatD (Homo sapiens (Human), UniProt P07339), entry Cc1cc(C#N)cnc1/C(F)=C/c1ccc(F)c([C@]23CO[C@H](C(F)(F)F)[C@H]2CSC(N)=N3)c1 > 400 µM

----------
biological target: Recombinant CatD (Homo sapiens (Human)); assay: In vitro enzymatic Cathepsin D (CatD) FRET assay; conditions: read-out: Cat D Enzyme IC50
Hi there, I'd appreciate the recorded pIC50 for every entry that follows.
Give bare numbers, as −log10 of the molar value.

>  <COMPOUND>
COc1nc(N2C[C@H]3CSC(N)=N[C@@]3(c3cc(/C=C(\F)c4ccc(C#N)cn4)ccc3F)C2)nc(C)c1F [Example 130]

>  <pIC50>
4.59

$$$$
>  <COMPOUND>
NC1=N[C@@]2(c3cc(/C=C(\F)c4cnc(OCC(F)(F)C(F)F)cn4)ccc3F)CN(c3ncc(F)cn3)C[C@H]2CS1 [Example 112]

>  <pIC50>
5.88

$$$$
>  <COMPOUND>
N#Cc1cnc(/C(F)=C/c2ccc(F)c([C@]34CN(c5ncc(F)cn5)C[C@H]3CSC(N)=N4)c2)cn1 [Example 111]

>  <pIC50>
4.71

$$$$
>  <COMPOUND>
COC[C@H](C)Oc1cnc(/C(F)=C/c2ccc(F)c([C@]34CN(c5ncc(F)cn5)C[C@H]3CSC(N)=N4)c2)cn1 [Example 114]

>  <pIC50>
4.41

$$$$
>  <COMPOUND>
N#Cc1ccc(/C(F)=C/c2ccc(F)c([C@]34CO[C@H](C(F)(F)F)[C@H]3CSC(N)=N4)c2)nc1 [Example 126]

>  <pIC50>
3.53

$$$$
>  <COMPOUND>
N#Cc1cnc(/C(F)=C/c2ccc(F)c([C@]34CO[C@H](C(F)(F)F)[C@H]3CSC(N)=N4)c2)c(Cl)c1 [Example 140]

>  <pIC50>
3.48

$$$$

Report pIC50 for each item below.
1. N#Cc1ccc(/C(F)=C/c2ccc(F)c([C@]34CN(c5ncccn5)C[C@H]3CSC(N)=N4)c2)nc1 [Example 135]
2. NC1=N[C@]2(c3cc(/C=C(\F)c4ccc(Cl)cn4)ccc3F)CN(c3ncc(F)cn3)C[C@@H]2CS1 [Example 100]

1. 3.97
2. 3.26

----------
target: human recombinant BACE1 (Homo sapiens (Human)); test: In vitro enzymatic BACE1 FRET assay; conditions: read-out: BACE1 Enzyme IC50
Hi there, I'd appreciate the recorded IC50 for every entry that follows.
Answers are plain numbers, in nM.

// below: answered compounds
>  <COMPOUND>
NC1=N[C@@]2(c3cc(/C=C(\F)c4ccc(C(F)(F)F)cn4)ccc3F)CO[C@H](C(F)(F)F)[C@H]2CS1 [Example 139]

>  <UNIT_STRING>
nM

>  <DATA_VALUE>
15.8

$$$$
>  <COMPOUND>
NC1=N[C@]2(c3cc(/C=C(\F)c4ccc(Cl)cn4)ccc3F)COC[C@@H]2CS1 [Example 104]

>  <UNIT_STRING>
nM

>  <DATA_VALUE>
804

$$$$
>  <COMPOUND>
NC1=N[C@]2(c3cc(/C=C(\F)c4ccc(Cl)cn4)ccc3F)CN(c3ncc(F)cn3)C[C@@H]2CS1 [Example 100]

>  <UNIT_STRING>
nM

>  <DATA_VALUE>
847

$$$$

Here is another compound to look at.
Item under review: C#CCOc1cnc(/C(F)=C/c2ccc(F)c([C@]34CN(C(=O)OCC)C[C@H]3CSC(N)=N4)c2)cn1 [Example 123] . Reported IC50? 4.5

Values were extracted from patent US11548903B2.
